# Tested on: RXRa DBDmut IVT, anti-RXR (DBD mutation: RXRa K156A/R161A, NR concentration 90 nM)
# ASSAY EXPLANATION: PBM binding z-score (relative to random genomic background probes); higher = stronger binding; sequences stand for … in GC…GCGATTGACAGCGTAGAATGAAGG
PBM binding z-score overview

SEQUENCE RECORD	PBM binding z-score
TCTGCTAGGTCAACGATGGTCAGCTGATCTGCTA	0.835
ATCTCTGGGTAACCAAGTTCAGTGAATGCCGAAC	0.665
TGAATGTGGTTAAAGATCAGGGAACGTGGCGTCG	-0.526
TCATATAGGTAAAAGGTGAAACTCGGTGTGGTAA	1.9
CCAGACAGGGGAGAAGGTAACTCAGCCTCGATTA	0.218
CCTGACGGGTCACTGACAGGTTATAGCATTTGGA	1.04

====

# Test system: THRa homodimer (NR concentration 90 nM)
# ASSAY EXPLANATION: PBM binding z-score (relative to random genomic background probes); higher = stronger binding; sequences stand for … in GC…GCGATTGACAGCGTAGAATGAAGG
PBM binding z-score overview
MEASURED PARAMETER: PBM binding z-score

SEQUENCE RECORD	VAL
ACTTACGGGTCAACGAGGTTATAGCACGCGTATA	1.25
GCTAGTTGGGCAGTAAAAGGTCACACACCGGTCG	1.62
CAGCCTAGGGCAGGGCCAGTATAGGAGGAACGTT	-0.998
TCTGGTAGATCAATAGAGGTTAAGAAAGTGCGCT	-0.138
TCTTGCAGATCAACAGGAGGTTAAGAAAGATCGA	-0.241
TCGAGTAGGTTACCAATGGGGCATACAGCTTTCT	-0.753
CCTTACGGGTCACGAGGTTATAGCGCGACGAGCG	1.07
ACTCGGCGGACAAAGGTCAGAGCTACGCCAGTGA	0.00347
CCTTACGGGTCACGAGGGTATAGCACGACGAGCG	0.0461
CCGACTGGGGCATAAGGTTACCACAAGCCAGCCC	1.37
ATCTCTAGGTAAAGTTCTGTGAAAGATCGATAGA	0.369
CGAACGAGGTCAAGGACAGTGAATCTCCGCACGC	3.19

====

# Tested on: PPARg:RXRa DBDmut IVT, anti-RXR (DBD mutation: RXRa K156A/R161A, NR concentration 270 nM, RXRa partner concentration 90 nM)
# ASSAY EXPLANATION: PBM binding z-score (relative to random genomic background probes); higher = stronger binding; sequences stand for … in GC…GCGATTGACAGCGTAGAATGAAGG

SEQUENCE RECORD	PBM binding z-score
GCTATTAGTTGAATGGGCAACCGAATGATTCTCG	0.75
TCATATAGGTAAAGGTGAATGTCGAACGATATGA	3.9
TCTAGATGGTCAAAGGTCACACACTCGAAATGCG	3.19
TCTATTAGTTGATTAGGGCAATCGAAACAGCGGA	2.23
CGAACTAGGTCATTGACATGACAGTGAATAGTAA	8.34
GCTGCTAGGTCAGGTCGGTCAGCTAACGGGTACG	2.59
GCAGACAGGTGAAACGCAGGTAACTCCGGGTGGC	0.8
CCAGACAGATGAAAGGTAACTCAGTCTGGTACGC	-0.108
CTTCCAAGGTCATAGGAGGTCAGTGAAGACAGAT	3.59
CTACCAAGGTGAACAAGGTAGTTGATTACTATTC	2.65
TCTATGAGTTGATTAGGGCAACCGAAACAGCGGA	1.35
CGAACGAGGGCATGAGTTGATAACAAATGCCGAT	2.8
